# subjectOfTest: Dual specificity mitogen-activated protein kinase kinase 1 (Homo sapiens)
# Sequence (Q02750 whole entry): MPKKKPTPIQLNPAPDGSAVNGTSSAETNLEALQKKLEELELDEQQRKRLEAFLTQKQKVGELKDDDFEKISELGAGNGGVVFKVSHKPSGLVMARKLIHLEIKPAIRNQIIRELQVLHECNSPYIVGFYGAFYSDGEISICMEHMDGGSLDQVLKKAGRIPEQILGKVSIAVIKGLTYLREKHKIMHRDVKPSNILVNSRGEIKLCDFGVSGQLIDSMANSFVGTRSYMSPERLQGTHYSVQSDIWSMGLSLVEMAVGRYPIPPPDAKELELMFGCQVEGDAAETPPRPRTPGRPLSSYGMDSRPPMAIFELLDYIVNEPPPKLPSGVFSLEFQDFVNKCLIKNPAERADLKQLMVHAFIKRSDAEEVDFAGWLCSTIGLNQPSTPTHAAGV
# assaySummary: Inhibition of MEK1 (unknown origin) phosphorylation by [gamma-33P]-ATP assay

- smi: "O=C(c1ccc(F)c(F)c1Nc1ccc(I)cc1F)N1CC(O)([C@@H]2CCCCN2)C1"
  resultUnits: "nM"
  IC50: 6.6

Data origin: ChEMBL document CHEMBL6074624
